Entries and their protein stability index
- test name: protein stability index of a GFP-peptide fusion (GPS, HEK-293T) (PSI 1-6); higher = more stable;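 further: 24-mer peptide tiles fused after GFP, lentivirally expressed, FACS-sorted into six equal bins by GFP/DsRed ratio, decoded by Illumina sequencing, PSI is the read-weighted mean bin number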
- condition summary: treatment: MLN4924 1 uM, 8 h; c terminus: a fixed tail appended
Answer as a number with no unit attached.

Example results:
INSERT INTO measurements (residue_codes, endpoint, measurement) VALUES
  ('AKKLPPVQESQSERLQAAGTDSAG [ELOA2]', 'protein stability index', 5.09),
  ('PRVPEEAAQDRPMSPGDCPPETTE [YJU2B]', 'protein stability index', 5.4),
  ('AAIVVNGHGMTPLKVAAESCKADV [FEM1B]', 'protein stability index', 3.3),
  ('RFTRTPVDQTGVSGGVASFICQAT [PTPRD]', 'protein stability index', 3.19),
  ('AKAQVRKAVQYEEKNPCRTLCCFC [STX11]', 'protein stability index', 3.36);

Next sequence, please.
Query string: Return protein stability index (reported value) for this sequence: YITKVSEEVTRLGAQVKELEEKCQ [TRIM15]
Result string: 4.22

----------
Listing: protein stability index of selected sequences
- test name: protein stability index of a GFP-peptide fusion (GPS, HEK-293T) (PSI 1-6); higher = more stable
- condition summary: treatment: DMSO; c terminus: a fixed tail appended
Just the number, please, no unit attached.

Worked cases, answers included:
INSERT INTO measurements (residue_codes, measurement) VALUES
  ('IFHSRTSLQKLSTKLSAQSAQYSQ [FCHSD1]', 2.91),
  ('RSPYAGLQLGAAKKPPVTFAEKGE [TRIM29]', 4.09),
  ('EAKSAQPADGWKGERPRSEEDNEL [GCH1]', 5.56),
  ('NKLQTLSPSHKGIAAPHAGANVKP [ZC2HC1A]', 4.35),
  ('PYVSDGNFSNYYVAHPPVTYSQPY [TENT5C]', 2.55),
  ('LEMCVDARTFGNEARFIRRSCTPN [KMT2E]', 3.19),
  ('GACYGDDACFVARHRSADVLGVAD [PPTC7]', 4.18),
  ('DAPLPGSKAKPKPPKQAQKEQRKQ [TBC1D10A]', 5.45),
  ('GGGGGGGGKSGGIVISPFRLEELT [CCDC6]', 3.34),
  ('GGRALVVRKVPPGYSIKVFDFERS [SMAD6]', 2.52);

Shifting focus to the sequence that follows.
Query string: Identify measured protein stability index associated with PLIKATVGLIRNLALCPANHAPLR [CTNNB1]
Result string: 2.39

----------
- test name: protein stability index of a GFP-peptide fusion (GPS, HEK-293T) (PSI 1-6); higher = more stable
- condition summary: treatment: MLN4924 1 uM, 8 h; c terminus: a fixed tail appended
endpoint: protein stability index
The reply should be a number, written without any unit.

Field: example entries. Status: answers known.
INSERT INTO measurements (residue_codes, measurement) VALUES
  ('FLGLFFIVRFLESNWFVWVTQMNH [FADS1]', 3.25),
  ('MSLEGTEKASWLGEQPQFWSKTQV [ELF3]', 3.33),
  ('EKQELHRNMLGLLGNVAEVKELRP [ZER1]', 4.04),
  ('RRLKQAKEEAQAEIEQYRLQREKE [ATP6V1G1]', 5.38),
  ('DEGEEFDDWEDDYDYPEEEQLSGA [EID1]', 5.3),
  ('SSLFSVEANSSNSQKNEKALTNIQ [C8orf76]', 4.73),
  ('SDFQIEPGFYATYESTLFEDQVPA [MIA2]', 3.7),
  ('MINSTSTQPPDESCSQNLLITQQI [P2RY14]', 4.26);

Query string: Please supply the value of reported protein stability index for the item IFHSRTSLQKLSTKLSAQSAQYSQ [FCHSD1]
Result string: 2.98

Query string: Please report protein stability index for the following sequence: YESHSTSELEDLTEPEQRELKTKL [TPD52L3]
Result string: 5.52

Query string: Quote protein stability index reported for IDNARLAADDFRLKYENELALRQG [KRT15] please.
Result string: 4.28

Query string: Report protein stability index for SKPCDLHCTTVDGQRQLMVPARDG [ADAMTSL2]
Result string: 4.37

Query string: Given the sequence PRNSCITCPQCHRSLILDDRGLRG [TRIM9] , write its reported protein stability index.
Result string: 3

All figures here come from the supplement of paper PMC10567573.
